From: the supplement of paper PMC10681739

biological target: RUNX1 (UniProt Q01196); assay: RUNX1 binding intensity (PBM fluorescence) in presence of ETS1, normalised to RUNX1-only experiment (arbitrary fluorescence units); higher = stronger binding; conditions: RUNX1 concentration 2 nM; ETS1 concentration 25 nM;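 note: Full-length recombinant human ETS1 or RUNX1 bound to double-stranded 36-bp genomic probes on microarrays, detected by protein-specific primary antibody and Alexa488 secondary, spot fluorescence as median of four replicate spots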
Sequence (Q01196 whole entry): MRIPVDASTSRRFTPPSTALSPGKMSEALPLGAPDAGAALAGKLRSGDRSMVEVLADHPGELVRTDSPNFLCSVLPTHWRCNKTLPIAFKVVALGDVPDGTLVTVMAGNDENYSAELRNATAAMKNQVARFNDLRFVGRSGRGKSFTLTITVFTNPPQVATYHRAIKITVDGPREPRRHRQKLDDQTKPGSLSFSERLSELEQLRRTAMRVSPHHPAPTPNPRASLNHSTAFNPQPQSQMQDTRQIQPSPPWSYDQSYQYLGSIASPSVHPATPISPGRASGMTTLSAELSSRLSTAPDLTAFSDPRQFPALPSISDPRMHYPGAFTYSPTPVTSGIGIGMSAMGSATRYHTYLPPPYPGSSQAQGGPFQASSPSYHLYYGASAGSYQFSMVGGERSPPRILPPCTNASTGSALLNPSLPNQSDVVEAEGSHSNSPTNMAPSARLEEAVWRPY
Decision: RUNX1 binding intensity >= 1000 yields yes (1), all other cases yield no (0).

In plain terms: is recorded RUNX1 binding intensity at least 1000 for `GGCCGGGGGCAGGAAGCTGCGGCGCTGGCTCCCCCC` ?
no (0)

Say whether `AAACTCCCCCACTTCCGCCCACAGCCCTCTGGGCTT` shows RUNX1 binding intensity of 1000 or more.
yes (1)

Entry `AAAGCATTTCCTGCCTTGACTTAACCACAAGACAGG` : is its RUNX1 binding intensity no less than 1000?
yes (1)

Could you verify whether the entry `GCTTCTTCAGCCACATCCTGACCACAGCCCAGATTC` shows RUNX1 binding intensity of no less than 1000?
yes (1)

Can `GGTCCCCCCGGTTCCGGCGCGGTTGAGGCCTTCGGT` be said to have RUNX1 binding intensity at or above 1000?
yes (1)

Assess whether reported RUNX1 binding intensity for `CAGAGGACAGGATGCCAACCCCAAAACCGCAGCGAC` sits at 1000 or higher.
yes (1)
